Assay: Total clearance in rat at 5 mg/kg, iv
Assay type: ADME, organism-based
Parameters: dose 5 mg/kg, route intravenous
Details: in vivo
MEASURED_PARAMETER: clearance

// recorded clearance for COc1cc2c(cc1F)C(c1ccccc1Cl)=Nc1c(n[nH]c1C)N2 : 8.78 mL/min/kg

###

Assay: Antiproliferative activity against human oral epidermoid cancer cells by MTT assay
Format: functional, cell-based
Conditions: Cancer cell lines
MEASURED_PARAMETER: IC50

// recorded IC50 for COc1cc2c(cc1F)C(c1ccccc1Cl)=Nc1c(n[nH]c1C)N2 [RG-1530] : 200 nM

###

Assay: Volume of distribution at steady state in mouse at 5 mg/kg, iv
Format: ADME, organism-based
Set-up: dose 5 mg/kg, route intravenous
Conditions: in vivo, read-out: Vdss
MEASURED_PARAMETER: Vd (L/kg)
Give bare numbers, in L/kg.

// recorded Vd for COc1cc2c(cc1F)C(c1ccccc1Cl)=Nc1c(n[nH]c1C)N2 : 3.12

###

Test: AUC (0 to 24 hrs) in monkey at 10 mg/kg, po
Format: ADME, organism-based, Macaca mulatta
Design: time < 24 hr, dose 10 mg/kg, route oral
Conditions: rhesus monkey, plasma
MEASURED_PARAMETER: AUC(0-t) at 24 h (ng·h/mL)
Numbers only, in ng·h/mL.

// recorded AUC(0-t) at 24 h for COc1cc2c(cc1F)C(c1ccccc1Cl)=Nc1c(n[nH]c1C)N2 [RG-1530] : 4820

###

Molecular target: Cyclin-dependent kinase 4 (Homo sapiens, UniProt P11802)
Sequence (P11802 whole entry): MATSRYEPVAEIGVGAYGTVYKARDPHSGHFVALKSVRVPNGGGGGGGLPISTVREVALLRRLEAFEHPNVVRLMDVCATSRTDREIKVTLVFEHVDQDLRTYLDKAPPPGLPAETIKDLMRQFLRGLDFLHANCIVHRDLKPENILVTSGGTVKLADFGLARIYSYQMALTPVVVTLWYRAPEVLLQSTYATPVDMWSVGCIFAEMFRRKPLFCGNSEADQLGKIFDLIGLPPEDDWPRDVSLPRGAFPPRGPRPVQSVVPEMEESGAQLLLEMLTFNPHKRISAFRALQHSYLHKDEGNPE
MEASURED_PARAMETER: IC50 (nM)
One number for each entry, in nM.

// recorded IC50 for Cc1[nH]nc2c1N=C(c1ccccc1Cl)c1cc(N)ccc1N2 : 303

###

Molecular target: Cyclin-dependent kinase 2 (Homo sapiens)
MEASURED_PARAMETER: pIC50
Answers are plain numbers, as −log10 of the molar value.

// recorded pIC50 for Cc1[nH]nc2c1N=C(c1ccccc1Cl)c1cc(N)ccc1N2 : 7.06

###

Target: UniProt P35968
Sequence (P35968 whole entry): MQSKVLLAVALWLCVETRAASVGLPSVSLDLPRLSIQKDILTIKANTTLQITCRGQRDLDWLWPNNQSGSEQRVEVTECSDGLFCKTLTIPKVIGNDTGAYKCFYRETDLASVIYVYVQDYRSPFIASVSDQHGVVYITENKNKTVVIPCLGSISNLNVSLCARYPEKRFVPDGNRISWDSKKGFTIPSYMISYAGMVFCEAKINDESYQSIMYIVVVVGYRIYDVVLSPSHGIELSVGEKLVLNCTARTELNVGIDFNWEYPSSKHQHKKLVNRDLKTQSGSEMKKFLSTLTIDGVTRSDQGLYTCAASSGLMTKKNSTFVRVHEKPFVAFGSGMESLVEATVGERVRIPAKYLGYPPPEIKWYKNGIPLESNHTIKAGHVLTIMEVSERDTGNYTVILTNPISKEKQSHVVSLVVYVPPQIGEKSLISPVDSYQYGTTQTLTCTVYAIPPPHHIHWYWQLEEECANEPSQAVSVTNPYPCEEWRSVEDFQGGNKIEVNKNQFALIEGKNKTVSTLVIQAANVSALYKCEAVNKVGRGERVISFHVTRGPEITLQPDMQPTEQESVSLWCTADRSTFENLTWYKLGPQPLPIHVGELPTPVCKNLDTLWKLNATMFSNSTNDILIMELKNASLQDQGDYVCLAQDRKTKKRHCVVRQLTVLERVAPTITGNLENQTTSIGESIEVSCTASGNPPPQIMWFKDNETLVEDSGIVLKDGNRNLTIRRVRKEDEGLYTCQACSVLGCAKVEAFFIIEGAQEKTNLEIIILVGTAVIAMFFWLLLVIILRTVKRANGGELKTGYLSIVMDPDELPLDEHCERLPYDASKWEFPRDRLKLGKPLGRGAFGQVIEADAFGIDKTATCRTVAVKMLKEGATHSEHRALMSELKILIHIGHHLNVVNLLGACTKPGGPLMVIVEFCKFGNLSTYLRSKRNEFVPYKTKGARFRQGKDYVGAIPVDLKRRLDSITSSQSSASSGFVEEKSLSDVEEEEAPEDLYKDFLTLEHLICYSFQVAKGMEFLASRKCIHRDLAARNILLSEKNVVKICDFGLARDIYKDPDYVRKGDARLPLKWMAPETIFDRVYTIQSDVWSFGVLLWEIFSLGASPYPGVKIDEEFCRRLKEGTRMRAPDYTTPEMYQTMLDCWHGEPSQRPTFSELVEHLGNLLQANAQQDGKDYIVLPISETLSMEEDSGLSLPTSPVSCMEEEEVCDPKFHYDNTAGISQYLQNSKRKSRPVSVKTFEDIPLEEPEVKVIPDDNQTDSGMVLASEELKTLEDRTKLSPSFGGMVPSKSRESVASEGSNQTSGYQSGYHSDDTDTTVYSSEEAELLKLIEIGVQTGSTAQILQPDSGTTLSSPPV
MEASURED_PARAMETER: pIC50
Answers are plain numbers, as −log10 of the molar value.

// recorded pIC50 for Cc1[nH]nc2c1N=C(c1ccccc1Cl)c1cc(N)ccc1N2 : 7.47

###

Test: AUC (0 to 24 hrs) in rat at 50 mg/kg, po
Format: ADME, organism-based
Parameters: time < 24 hr, dose 50 mg/kg, route oral
Conditions: plasma
MEASURED_PARAMETER: AUC(0-t) at 24 h (ng·h/mL)
Answers are plain numbers, in ng·h/mL.

// recorded AUC(0-t) at 24 h for COc1cc2c(cc1F)C(c1ccccc1Cl)=Nc1c(n[nH]c1C)N2 [RG-1530] : 86300

###

Experiment: Oral bioavailability in mouse at 25 mg/kg
Assay type: ADME, organism-based
Settings: in vivo
MEASURED_PARAMETER: bioavailability (%)
Give bare numbers, in %.

// recorded bioavailability for COc1cc2c(cc1F)C(c1ccccc1Cl)=Nc1c(n[nH]c1C)N2 : 96.9

###

Test system: HUVEC
Test: Antiangiogenic activity in HUVEC assessed as inhibition of VEGF-induced cell proliferation
Type: functional, cell-based
Conditions: Homo sapiens
MEASURED_PARAMETER: IC50 (nM)
Numbers only, in nM.

// recorded IC50 for COc1cc2c(cc1F)C(c1ccccc1Cl)=Nc1c(n[nH]c1C)N2 : 49
